Ref: patent US12286405B2

Protocol: solubility of rac-1 in organic solvent (dichloromethane)
Assay type: physicochemical
Setup conditions: organic solvent or mixture
Measurement kind: solubility

Q: Looking for the measured solubility of C/C(N)=N\C(=N/S(=O)(=O)c1ccc(C(F)(F)F)cc1)N1CC(c2ccccc2)C(c2ccc(Cl)cc2)=N1 (racemic) [rac-1] , can you help?
A: ~1000 µg/mL
